The reported numbers originate from patent US20240150358A1.

# experimental system: full-length human PIKFYVE (Homo sapiens (Human), UniProt Q9Y2I7, L932S/Q1183K/Q995L/S1033A/S696N/T998S)
# Sequence (Q9Y2I7 whole entry S696N/L932S/Q995L/T998S/S1033A/Q1183K): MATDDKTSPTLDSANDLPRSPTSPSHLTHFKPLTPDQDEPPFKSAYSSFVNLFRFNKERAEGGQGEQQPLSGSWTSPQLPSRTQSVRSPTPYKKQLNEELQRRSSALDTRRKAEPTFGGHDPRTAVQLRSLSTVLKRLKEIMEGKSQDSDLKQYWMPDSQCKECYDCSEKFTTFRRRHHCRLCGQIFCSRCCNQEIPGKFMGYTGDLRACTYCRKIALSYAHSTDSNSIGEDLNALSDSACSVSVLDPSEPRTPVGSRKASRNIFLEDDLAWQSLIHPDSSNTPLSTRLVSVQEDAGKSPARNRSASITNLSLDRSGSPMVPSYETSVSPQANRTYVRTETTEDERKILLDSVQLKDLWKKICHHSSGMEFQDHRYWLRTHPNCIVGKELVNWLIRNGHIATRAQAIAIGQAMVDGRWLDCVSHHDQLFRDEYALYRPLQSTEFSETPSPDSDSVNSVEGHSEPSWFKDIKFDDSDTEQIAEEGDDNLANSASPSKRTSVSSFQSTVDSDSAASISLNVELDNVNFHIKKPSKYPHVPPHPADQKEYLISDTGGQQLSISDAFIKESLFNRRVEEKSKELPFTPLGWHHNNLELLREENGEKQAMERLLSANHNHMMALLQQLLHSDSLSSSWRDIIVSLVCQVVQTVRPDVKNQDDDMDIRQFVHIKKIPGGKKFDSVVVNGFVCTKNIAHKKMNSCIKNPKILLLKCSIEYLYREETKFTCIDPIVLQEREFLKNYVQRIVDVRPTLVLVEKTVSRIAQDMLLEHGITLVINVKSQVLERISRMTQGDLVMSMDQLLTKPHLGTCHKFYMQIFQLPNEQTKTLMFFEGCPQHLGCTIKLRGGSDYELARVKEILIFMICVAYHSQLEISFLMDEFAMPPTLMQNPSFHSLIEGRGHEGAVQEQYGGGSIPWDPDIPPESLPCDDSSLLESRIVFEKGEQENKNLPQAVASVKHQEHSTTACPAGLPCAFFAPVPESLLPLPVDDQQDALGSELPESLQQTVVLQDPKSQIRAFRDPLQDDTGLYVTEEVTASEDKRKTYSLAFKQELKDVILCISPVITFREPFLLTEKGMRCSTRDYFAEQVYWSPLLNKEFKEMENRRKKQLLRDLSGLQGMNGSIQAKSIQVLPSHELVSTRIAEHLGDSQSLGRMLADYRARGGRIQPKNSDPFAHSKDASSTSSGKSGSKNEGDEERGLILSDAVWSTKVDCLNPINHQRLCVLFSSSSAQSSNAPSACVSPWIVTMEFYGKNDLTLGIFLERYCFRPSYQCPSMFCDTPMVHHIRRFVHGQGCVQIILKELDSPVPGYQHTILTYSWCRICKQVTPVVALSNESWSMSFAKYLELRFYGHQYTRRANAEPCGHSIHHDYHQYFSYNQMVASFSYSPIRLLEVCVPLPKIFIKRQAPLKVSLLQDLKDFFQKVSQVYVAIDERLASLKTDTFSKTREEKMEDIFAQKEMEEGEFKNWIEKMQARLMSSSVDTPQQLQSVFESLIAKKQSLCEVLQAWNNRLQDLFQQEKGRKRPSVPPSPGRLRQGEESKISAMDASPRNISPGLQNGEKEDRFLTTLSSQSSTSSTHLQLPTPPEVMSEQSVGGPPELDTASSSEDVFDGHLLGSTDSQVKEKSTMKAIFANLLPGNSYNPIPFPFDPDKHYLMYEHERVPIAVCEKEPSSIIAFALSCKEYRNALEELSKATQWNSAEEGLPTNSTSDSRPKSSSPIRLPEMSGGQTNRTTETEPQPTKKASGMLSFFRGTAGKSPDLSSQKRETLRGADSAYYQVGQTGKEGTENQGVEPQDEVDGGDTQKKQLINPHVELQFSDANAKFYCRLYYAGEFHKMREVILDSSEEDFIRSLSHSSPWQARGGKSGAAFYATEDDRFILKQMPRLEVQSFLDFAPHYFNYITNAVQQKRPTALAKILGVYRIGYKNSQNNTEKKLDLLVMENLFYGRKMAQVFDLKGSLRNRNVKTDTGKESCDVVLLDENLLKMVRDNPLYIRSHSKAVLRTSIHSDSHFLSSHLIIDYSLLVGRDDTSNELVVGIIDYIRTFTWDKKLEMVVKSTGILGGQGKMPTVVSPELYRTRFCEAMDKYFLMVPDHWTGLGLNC
# test summary: PIKfyve biochemical assay (ADP-Glo Kinase assay, Carna Biosciences)
# test context: ADP-Glo, GST-PIKFYVE, 10 μM to 3 nM; read-out: hPIKfyve IC50
pIC50: −log10 of the molar value.
Catalogue of pIC50 readings, one per entry.

// solved cases for pIC50 follow
Cn1c(C2CCOCC2)nc2c(N3CCOCC3)nc(-n3ccc(C4CCCNC4)n3)nc21 (centres unmarked) [Compound 16]	5.00 to 6.00
Cn1c(C2CCOCC2)nc2c(N3CCOCC3)nc(-n3ccc(-c4ccccc4)n3)nc21 [Compound 12]	6.00 to 7.00
Cn1c(-c2ccncc2)nc2c(N3CCOCC3)nc(-c3nccc(C4CC4)n3)nc21 [Compound 103]	7.00 to 8.00
CN1CCC(c2ccn(-c3nc(N4CCOCC4)c4nc(-c5ccncc5)n(C)c4n3)n2)CC1 [Compound 18]	6.00 to 7.00
Cn1c(-c2ccncc2)nc2c(N3CCOCC3)nc(-n3cc(-c4ccncc4)cn3)nc21 [Compound 93]	7.00 to 8.00
Cn1c(C2CN(C(=O)OC(C)(C)C)C2)nc2c(N3CCOCC3)nc(-n3ccc(-c4ccccc4)n3)nc21 [Compound 13]	7.00 to 8.00
CN1CCCC(c2ccn(-c3nc(N4CCOCC4)c4nc(C5CCOCC5)n(C)c4n3)n2)C1 (centres unmarked) [Compound 15]	5.00 to 6.00
CN1CC(c2ccn(-c3nc(N4CCOCC4)c4nc(-c5ccncc5)n(C)c4n3)n2)CCC1=O (centres unmarked) [Compound 88]	> 8.00

Query: // query pIC50 value for entry Cn1c(-c2ccncc2)nc2c(N3CCOCC3)nc(-c3ccc4c(c3)OCCO4)nc21 [Compound 45]
Reply: 7.00 to 8.00

Query: // query pIC50 value for entry Cn1ccc(-c2nc(N3CCOCC3)c3nc(-c4ccncc4)n(C)c3n2)n1 [Compound 48]
Reply: 6.00 to 7.00

Query: // query pIC50 value for entry Cn1c(-c2ccncc2)nc2c(N3CCOCC3)nc(-n3ccc(-c4cccc(F)c4)n3)nc21 [Compound 28]
Reply: 7.00 to 8.00

* * *

# experimental system: full-length human PIKFYVE (Homo sapiens (Human), UniProt Q9Y2I7, L932S/Q1183K/Q995L/S1033A/S696N/T998S)
# test summary: PIKfyve biochemical assay (ADP-Glo Kinase assay, Carna Biosciences)
# test context: ADP-Glo, GST-PIKFYVE, 10 μM to 3 nM; read-out: hPIKfyve IC50
Catalogue of IC50 readings, one per entry.

c1cc(-c2nc3c(N4CCOCC4)nc(-n4ccc(C5CCCNC5)n4)nc3[nH]2)ccn1 (centres unmarked)	10 to 100 nM
CS(=O)(=O)N1CCN(Cc2cc3c(N4CCOCC4)nc(-c4cccc5[nH]ncc45)nc3s2)CC1	100 to 1000 nM
Cn1c(-c2ccncc2)nc2c(N3CCOCC3)nc(-n3ccc(CC4CN(C(=O)OC(C)(C)C)C4)n3)nc21	10 to 100 nM
Cn1c(C2CCOCC2)nc2c(N3CCOCC3)nc(-c3noc(-c4ccccc4)n3)nc21	100 to 1000 nM
Cc1cccc(/C=N/Nc2nc(N3CCOCC3)c3nc(-c4ccncc4)n(C)c3n2)c1 [Compound 118]	10 to 100 nM

Query: // query IC50 value for entry `CN1CC(c2nc3c(N4CCOCC4)nc(-n4ccc(-c5ccccc5)n4)nc3n2C)C1`
Reply: 100 to 1000 nM

Query: // query IC50 value for entry `Cn1c(-c2ccncc2)nc2c(N3CCOCC3)nc(-n3ccc(-c4cncnc4)n3)nc21`
Reply: 10 to 100 nM

Query: // query IC50 value for entry Cn1c(-c2ccncc2)nc2c(N3CCOCC3)nc(-n3ccc(C4CCNC4)n3)nc21 (centres unmarked)
Reply: 100 to 1000 nM
